- TEST_SUMMARY: Aqueous solubility of compound
- Assay type: physicochemical
OBSERVATION_TYPE: solubility (µM)

> print(dat)
                            chemical.string  test.value
1  CCCOC(=O)[C@@H]1Cc2cc(O)c(O)cc2[C@H](Cc2ccc(O)c(O)c2)N1C(=O)c1ccccc1Cl        1.62

* * *

- TEST_SUMMARY: Distribution coefficient, logD of compound at pH 7.4
- Type: physicochemical
- TEST_SETTINGS: octanol/water
OBSERVATION_TYPE: logD

> print(dat)
                            chemical.string  test.value
1  CCCOC(=O)[C@@H]1Cc2cc(O)c(O)cc2[C@H](Cc2ccc(O)c(O)c2)N1C(=O)c1ccccc1Cl        3.25
